Entries annotated with measured growth inhibition
- test.method.notes: NCI Yeast Anticancer Drug Screen. Data for the sgs1 mgt1 strain (AID 161);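 further: 0% = growth of cultures given vehicle only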
- test.settings: S. cerevisiae sgs1 mgt1 strain, at 50.0 µM, stronger effect = higher value
- Experimental: Growth inhibition of yeast strains with defined genetic alterations is measured as a screen for potential anti-cancer activity. Selected strains with alterations in DNA damage repair or cell cycle control were exposed to compounds and growth inhibition was measured relative to vehicle treated controls. The strain used in this assay is sgs1 mgt1
Compounds without any hit were thinned out: in the full panel of roughly 79,000, 15% have a hit. Activity calls are given as the source filed them. No stated cut-off is given here; in the data, active means growth inhibition above about 70%; inactive means the rest.

{"columns": ["molecule", "growth inhibition"],
 "data": [
  ["Clc1ccccc1CN1COc2c(cc(Cl)c3cccnc23)C1", "99.4% (active)"],
  ["COc1c(O)ccc2c1CN1CCc3cc4c(cc3C1C2)OCO4 (stereo unspecified)", "49.2% (inactive)"],
  ["COc1ccc(C(=O)C(Br)CS(=O)(=O)c2ccc(C)cc2)cc1 (stereo unspecified)", "99.4% (active)"],
  ["N#CC(/C=C/c1ccccc1)(NO)Nc1cccc(Cl)c1 (stereo unspecified)", "99.1% (active)"],
  ["Nc1ccc(/C=C2/c3ccccc3-c3nc4ccccc4cc32)cc1", "59.9% (inactive)"],
  ["O=C1CC(O)CC(=O)C1=C(O)CCCCCCCCCCc1ccccc1 (stereo unspecified)", "74.2% (active)"]
]}
